Target: T1, human-CD40-monomer protein (human, UniProt P25942 21-193, limits assumed)
T1 construct: Soluble monomer generated in house, used as SPR analyte; also called hCD40; hCD40-monomer
T1 sequence (P25942 21-193 limits assumed): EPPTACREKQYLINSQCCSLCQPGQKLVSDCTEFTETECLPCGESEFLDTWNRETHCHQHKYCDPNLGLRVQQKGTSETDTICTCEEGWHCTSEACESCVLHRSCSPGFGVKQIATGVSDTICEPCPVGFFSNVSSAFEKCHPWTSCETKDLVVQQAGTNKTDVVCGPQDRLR
Assay: SPR, Ab captured on protein A, hCD40 monomer 500 and 50 nM, 1:1 fit; supernatant
quantityMeasured: pKd
Scale for pKd: -log10 of concentration given in mol/L; no unit attached.

>  <binder>
Y12XX-hz12 (antibody, human IgG1, kappa, V domains shown, Humanized, IgG1-P238K; supernatant sample) VH: QVQLVQSGAEVKKPGSSVKVSCKASGYAFTSYWMHWVRQAPGQGLEWMGQINPSQGRSQYNEKFKTRVTITADKSTSTAYMELSSLRSEDTAVYYCARWGLQPFAYWGQGTLVTVSS VL: DIQMTQSPSSLSASVGDRVTITCKASQDVSTAVAWYQQKPGKAPKLLIYSASYRYTGVPSRFSGSGSGTDFTFTISSLQPEDIATYYCQQHYSTPWTFGGGTKVEIKR

>  <pKd>
8.08

$$$$
>  <binder>
Y12XX-hz9 (antibody, human IgG1, kappa, V domains shown, Humanized, IgG1-P238K; supernatant sample) VH: QVQLVQSGAEVKKPGSSVKVSCKASGYAFTSYWMHWVRQAPGQGLEWMGQINPSNGRSQYNEKFKTRVTITADKSTSTAYMELSSLRSEDTAVYYCARWGLQPFAYWGQGTLVTVSS VL: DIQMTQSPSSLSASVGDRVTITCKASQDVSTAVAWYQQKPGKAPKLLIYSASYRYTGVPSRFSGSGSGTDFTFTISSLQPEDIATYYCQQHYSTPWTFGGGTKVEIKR

>  <pKd>
8.34

$$$$

Lab note: next binder to report on.
Fill blank: measured pKd of the binder Y12XX-hz25 (antibody, human IgG1, kappa, V domains shown, Humanized, IgG1-P238K; supernatant sample) VH: QVQLVQSGAEVKKPGSSVKVSCKASGYAFTSYWMHWVRQRPGQGLEWIGQINPSNGRSQYNEKFKTRVTITADKSTSTAYMELSSLRSEDTAVYYCARWGLQPFAYWGQGTLVTVSS VL: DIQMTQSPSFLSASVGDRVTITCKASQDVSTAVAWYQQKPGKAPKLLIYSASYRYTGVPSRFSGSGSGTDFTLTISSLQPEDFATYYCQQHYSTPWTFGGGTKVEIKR is ____.
8.47
